Origin of the recorded values: patent US20210388087A1

Documented fold change of affinity across a set of binders
Molecular target: Human CD137 ECD (human)
Sequence (chain, as listed by the source limits assumed): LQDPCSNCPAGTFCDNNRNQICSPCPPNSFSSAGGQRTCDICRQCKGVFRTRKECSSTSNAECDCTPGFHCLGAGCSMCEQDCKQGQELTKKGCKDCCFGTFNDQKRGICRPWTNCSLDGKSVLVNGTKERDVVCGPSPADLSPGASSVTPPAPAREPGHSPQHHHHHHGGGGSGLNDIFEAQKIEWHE
Assay: SPR, vs parent H183/L072

binder | fold change of affinity
dBBDu183H Y97D / dBBDu072L (antibody, name in Kabat numbering, V domains shown) VH: QVQLVESGGGLVQPGRSLRLSCAASGFTFSNAWMHWVRQAPGKGLEWVAQIKDKGNAYAAYYAPSVKGRFTISRDDSKNSIYLQMNSLKTEDTAVYYCHYVHDASASTVLPAFGVDAWGQGTTVTVSS VL: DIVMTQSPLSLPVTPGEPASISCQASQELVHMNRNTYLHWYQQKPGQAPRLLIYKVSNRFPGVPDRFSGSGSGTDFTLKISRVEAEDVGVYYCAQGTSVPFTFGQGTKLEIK | 0 fold
dBBDu183H A100fQ / dBBDu072L (antibody, name in Kabat numbering, V domains shown) VH: QVQLVESGGGLVQPGRSLRLSCAASGFTFSNAWMHWVRQAPGKGLEWVAQIKDKGNAYAAYYAPSVKGRFTISRDDSKNSIYLQMNSLKTEDTAVYYCHYVHYASASTVLPQFGVDAWGQGTTVTVSS VL: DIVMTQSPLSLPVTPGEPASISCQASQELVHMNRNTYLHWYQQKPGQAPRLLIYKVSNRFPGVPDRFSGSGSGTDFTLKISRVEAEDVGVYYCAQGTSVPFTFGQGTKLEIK | 0 fold
dBBDu183H A102W / dBBDu072L (antibody, name in Kabat numbering, V domains shown) VH: QVQLVESGGGLVQPGRSLRLSCAASGFTFSNAWMHWVRQAPGKGLEWVAQIKDKGNAYAAYYAPSVKGRFTISRDDSKNSIYLQMNSLKTEDTAVYYCHYVHYASASTVLPAFGVDWWGQGTTVTVSS VL: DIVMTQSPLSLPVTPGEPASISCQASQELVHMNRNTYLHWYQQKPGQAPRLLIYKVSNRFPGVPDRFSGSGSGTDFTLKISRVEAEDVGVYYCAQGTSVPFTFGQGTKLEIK | 0 fold
